test system: TK-10; assay: Antitumor activity against human TK-10 cells assessed as cell growth inhibition at 10 uM incubated for 48 hrs by sulforhodamine B assay; assay type: functional; conditions: read-out: GI
Everything with inhibition of growth at 10 µM lower than 50% is Not fulfilled; everything else, including exactly 50%, is Fulfilled.

Nc1nn2cc(-c3ccc(Cl)cc3)[nH]c2c1/N=N/c1ccc(S(N)(=O)=O)cc1	Not fulfilled
Cc1ccc(-c2nc3c(/N=N/c4ccc(S(N)(=O)=O)cc4)c(N)nn3c(N)c2C#N)cc1	Not fulfilled
Nc1nn2cc(-c3ccccc3)[nH]c2c1/N=N/c1ccc(S(N)(=O)=O)cc1	Fulfilled
N#Cc1c(-c2ccc(Br)cc2)nc2c(/N=N/c3ccc(S(N)(=O)=O)cc3)c(N)nn2c1N	Not fulfilled
Cc1ccc(-c2cn3nc(N)c(/N=N/c4ccc(S(N)(=O)=O)cc4)c3[nH]2)cc1	Fulfilled
